Test system: M14 melanoma
Experiment: NCI tumour cell line growth inhibition, 48 h
MEASUREMENT TYPE: TGI (µM)
Numbers only here, please. The scale is µM.

{"COMPOUND": "CC1CCCC2(O1)OC1CC(=O)OC1C1=C2C(=O)c2ccccc2C1=O (centres undefined)", "TGT": "M14 melanoma", "TGI [µM]": 7.89}

Reported TGI for COc1ccc2[nH]c3c(C)c4ccnc(NCCCN(C)CCCNC(=O)NCCCN(C)CCCNc5nccc6c(C)c7[nH]c8ccc(OC)cc8c7c(C)c56)c4c(C)c3c2c1 : what is it?
1.33

----------
System: SNB-75 CNS
Test: NCI tumour cell line growth inhibition, 48 h
MEASUREMENT TYPE: TGI (µM)
Numbers only here, please. The scale is µM.

{"SMI": "CN(C)CCCn1c2c(c3ccncc3c1=O)C(=O)c1ccccc1-2", "MEASUREMENT TYPE": "TGI", "OBSERVED VALUE": 5.88}

Reported TGI for C=C1C(=O)O[C@H]2[C@H]1CC/C(Cn1cc(CNC(=O)c3cc4ccccc4[nH]3)nn1)=C\CC[C@@]1(C)O[C@@H]21 : what is it?
22.4

----------
Test system: A498 renal
Experiment: NCI tumour cell line growth inhibition, 48 h
MEASUREMENT TYPE: TGI (µM)
Numbers only here, please. The scale is µM.

Worked examples, 5 compounds total:
{"COMPOUND": "Cn1cnc2nc(Cl)nc(Cl)c21", "MEASUREMENT TYPE": "TGI", "UOM": "µM", "OBSERVED VALUE": 6.77}
{"COMPOUND": "O=C(/C=C/CN1CCCCC1)Nc1cc2c(Nc3ccc(F)c(Cl)c3F)ncnc2cc1OCCOC(F)F", "MEASUREMENT TYPE": "TGI", "UOM": "µM", "OBSERVED VALUE": 2.02}
{"COMPOUND": "CC[N+]1(C)CCC(O)(/C=C/c2ccccc2)C(C(=O)/C=C/c2ccccc2)C1 (stereo not drawn)", "MEASUREMENT TYPE": "TGI", "UOM": "µM", "OBSERVED VALUE": 38.9}
{"COMPOUND": "Cn1cc(C2=C(c3cn(CCCSC(=N)N)c4ccccc34)C(=O)NC2=O)c2ccccc21", "MEASUREMENT TYPE": "TGI", "UOM": "µM", "OBSERVED VALUE": 12}
{"COMPOUND": "CC(C)(C)OC(=O)N1CC(COS(C)(=O)=O)c2ccc(O)cc21 (stereo not drawn)", "MEASUREMENT TYPE": "TGI", "UOM": "µM", "OBSERVED VALUE": 4.38}

Reported TGI for O=C(C(Cl)=C(Nc1ccccc1)Nc1ccccc1)C(Cl)Cl : what is it?
74.5

Reported TGI for N#CC1=C(N)Oc2c(ccc3ccccc23)C1c1ccccc1Cl (stereo not drawn) : what is it?
0.496

Reported TGI for N#Cc1ccccc1C#C/C=C\C#Cc1cnccn1 : what is it?
52.3

----------
System: M14 melanoma
Test: NCI tumour cell line growth inhibition, 48 h; in the data active means GI50 below about 0.43 µM; inactive means the rest
Write down one outcome, taken from Y (active), N (inactive)

Use the examples below as a reference point.
{"COMPOUND": "CN1CCN(Cc2ccc(NC(=O)c3cncc(C#Cc4c(N)ncc5ccc(F)cc45)c3)cc2C(F)(F)F)CC1", "CAT": "Y"}
{"COMPOUND": "CCS(=O)(=O)Nc1ccc(Oc2ccc(F)cc2F)c(-c2cn(C)c(=O)c3[nH]ccc23)c1", "CAT": "Y"}
{"COMPOUND": "O=C(CCc1nnc2s/c(=C\\c3ccc(Cl)cc3Cl)c(=O)n12)Nc1cc(Cl)c(Cl)cc1Cl", "CAT": "N"}
{"COMPOUND": "CC1SC(c2cccc(Oc3ccccc3)c2)N(CCc2cccs2)C1=O (stereo not given)", "CAT": "N"}

Now examine the next entry.
// return assay outcome for CCOC(=O)C(Cc1ccc(N(CCCl)CCCl)cc1)NC(=O)C(CC(C)C)NC(C)=O (stereo not given)
N
